System: Mycobacterium kansasii
PROTOCOL NOTES: Antimycobacterial activity against Mycobacterium kansasii isolate 6509/96 after 7 days by micromethod
Assay type: functional
PROTOCOL CONDITIONS: isolate 6509/96, 168 h
Reported log10 MIC values are given for each entry in this list.
All values: log10 MIC [µM].

Solved entries (count: 5):
- COMPOUND: "O=C(CN1C(=O)CSC1=S)Oc1ccc(C(F)(F)F)cc1"
  EXPERIMENTAL VALUE: 3.00
- COMPOUND: "O=C(CN1C(=O)CSC1=S)Nc1ccccc1"
  EXPERIMENTAL VALUE: 3.00
- COMPOUND: "Cc1ccc(NC(=O)CN2C(=O)CSC2=S)cc1"
  EXPERIMENTAL VALUE: 2.70
- COMPOUND: "O=C(CN1C(=O)CSC1=S)Nc1ccc([N+](=O)[O-])cc1"
  EXPERIMENTAL VALUE: 2.70
- COMPOUND: "O=C(O)CN1C(=O)/C(=C/c2cc(Br)ccc2O)SC1=S"
  EXPERIMENTAL VALUE: 1.80

Now take the following compound into account.
The reported log10 MIC of the compound O=C(CN1C(=O)/C(=C/c2cc(Br)ccc2O)SC1=S)Nc1ccc(Cl)cc1 was 2.10

----------
Test system: Candida tropicalis
PROTOCOL NOTES: Antifungal activity against Candida tropicalis 156 after 48 hrs by microdilution broth assay
Format: functional
PROTOCOL CONDITIONS: Candida tropicalis, 156, 48 h
EXPERIMENTAL ENDPOINT: MIC80

- SMILES: "O=C(CN1C(=O)CSC1=S)Oc1ccc(C(F)(F)F)cc1"
  SYSTEM: "Candida tropicalis"
  MIC80: "> 500 µM"

GET /value?item= OC(Cn1cncn1)(Cn1cncn1)c1ccc(F)cc1F &field=MIC80 returns > 500 µM

Item: O=C(O)CN1C(=O)/C(=C/c2ccccc2O)SC1=S | MIC80: > 500 µM

----------
Tested on: Aspergillus fumigatus
PROTOCOL NOTES: Antifungal activity against Aspergillus fumigatus 231 after 24 hrs by microdilution broth assay
Assay type: functional
PROTOCOL CONDITIONS: Aspergillus fumigatus, 231, 24 h
Reported MIC50 values for a set of compounds

- SMILES: "O=C(O)CN1C(=O)/C(=C/c2ccccc2O)SC1=S"
  EXPERIMENTAL ENDPOINT: "MIC50"
  EXPERIMENTAL VALUE: "> 500 µM"
- SMILES: "O=C(CN1C(=O)CSC1=S)Oc1ccc([N+](=O)[O-])cc1"
  EXPERIMENTAL ENDPOINT: "MIC50"
  EXPERIMENTAL VALUE: "500 µM"

Now for the compound whose MIC50 we want.
Query CC(=O)Oc1ccccc1/C=C1\SC(=S)N(CC(=O)O)C1=O yields MIC50 of > 500 µM

----------
Some compounds, each annotated with its measured MIC80.
Test system: Candida albicans
PROTOCOL NOTES: Antifungal activity against Candida albicans ATCC 44859 after 48 hrs by microdilution broth assay
Format: functional
PROTOCOL CONDITIONS: ATCC 44859, 48 h

- SMILES: "O=C(CN1C(=O)CSC1=S)Oc1ccc([N+](=O)[O-])cc1"
  EXPERIMENTAL VALUE: "> 500 µM"
- SMILES: "O=C(CN1C(=O)CSC1=S)Oc1ccc(C(F)(F)F)cc1"
  EXPERIMENTAL VALUE: "> 500 µM"
- SMILES: "O=C(CN1C(=O)CSC1=S)Oc1ccc(Cl)cc1"
  EXPERIMENTAL VALUE: "> 500 µM"
- SMILES: "CC(=O)Oc1ccccc1/C=C1\\SC(=S)N(CC(=O)O)C1=O"
  EXPERIMENTAL VALUE: "> 500 µM"
- SMILES: "O=C(O)CN1C(=O)/C(=C/c2ccccn2)SC1=S"
  EXPERIMENTAL VALUE: "≥ 0.98 µM"
- SMILES: "O=C(O)CN1C(=O)/C(=C/c2ccccc2O)SC1=S"
  EXPERIMENTAL VALUE: "500 µM"

Item: O=C(O)CN1C(=O)/C(=C/c2ccc(O)cc2)SC1=S | System: Candida albicans | MIC80: 500 µM

Observed MIC80, Candida albicans, O=C(CN1C(=O)CSC1=S)Nc1ccccc1 : > 500 µM

Reading of MIC80 for OC(Cn1cncn1)(Cn1cncn1)c1ccc(F)cc1F with Candida albicans: 0.24 µM
